Record form. Attribute: pIC50. Fill in for each entry.
Test system: MCF7 multi-cell spheroids with HUVEC/MSC, viability
experiment.notes: Anticancer human tumor MCF7 cell line growth inhibition [IpAb];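 further: spheroids exposed to agents for seven days before readout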
applied.conditions: curve of first compound; second compound 0.316 µM
Experimental: Combinatorial screen of targeted agents with ipatasertib and abemaciclib in multi-cell type tumor spheroids […] Compounds. […] If the clinical Cmax for an agent had not been determined, the highest concentration tested was 10 microM. NCI60 Cell Culture. […] The optimal seeding densities for each of the cell lines at each time point assessed were determined prior to performing the concentration response studies. […]
Would you please state pIC50, meaning minus log10 of the concentration in mol/L, as a bare number?

Supply pIC50 value. Item: COc1c(OCCCN2CCOCC2)ccc2c3n(c(=NC(=O)c4cnc(N)nc4)nc12)CCN3 + CC(C)NCC(C(=O)N1CCN(c2ncnc3c2C(C)CC3O)CC1)c1ccc(Cl)cc1
7.50

Supply pIC50 value. Item: Cc1nc(NC(=O)N2CCCC2C(N)=O)sc1-c1ccnc(C(C)(C)C(F)(F)F)c1 (stereo unspecified) + CCN1CCN(Cc2ccc(Nc3ncc(F)c(-c4cc(F)c5nc(C)n(C(C)C)c5c4)n3)nc2)CC1
5.46

Supply pIC50 value. Item: CC(C)n1nc(-c2ccc3oc(N)nc3c2)c2c(N)ncnc21 + CCN1CCN(Cc2ccc(Nc3ncc(F)c(-c4cc(F)c5nc(C)n(C(C)C)c5c4)n3)nc2)CC1
7.84

Supply pIC50 value. Item: C=CC(=O)N1CCN(c2nc(=O)n(-c3c(C)ccnc3C(C)C)c3nc(-c4c(O)cccc4F)c(F)cc23)C(C)C1 (stereo unspecified) + CC(C)NCC(C(=O)N1CCN(c2ncnc3c2C(C)CC3O)CC1)c1ccc(Cl)cc1
5.16

Supply pIC50 value. Item: COc1c(OCCCN2CCOCC2)ccc2c3n(c(=NC(=O)c4cnc(N)nc4)nc12)CCN3 + CCN1CCN(Cc2ccc(Nc3ncc(F)c(-c4cc(F)c5nc(C)n(C(C)C)c5c4)n3)nc2)CC1
7.38

Supply pIC50 value. Item: Cn1ncc(Cl)c1-c1cc(C(=O)NC(CN)Cc2cccc(F)c2)sc1Cl (stereo unspecified) + CC(C)NCC(C(=O)N1CCN(c2ncnc3c2C(C)CC3O)CC1)c1ccc(Cl)cc1
6.00

Supply pIC50 value. Item: CC1(C)CCC(CN2CCN(c3ccc(C(=O)NS(=O)(=O)c4ccc(NCC5CCOCC5)c([N+](=O)[O-])c4)c(Oc4cnc5[nH]ccc5c4)c3)CC2)=C(c2ccc(Cl)cc2)C1 + CCN1CCN(Cc2ccc(Nc3ncc(F)c(-c4cc(F)c5nc(C)n(C(C)C)c5c4)n3)nc2)CC1
5.20

Supply pIC50 value. Item: C=CCn1c(=O)c2cnc(Nc3ccc(N4CCN(C)CC4)cc3)nc2n1-c1cccc(C(C)(C)O)n1 + CC(C)NCC(C(=O)N1CCN(c2ncnc3c2C(C)CC3O)CC1)c1ccc(Cl)cc1
6.44

Supply pIC50 value. Item: CC(C)n1nc(-c2ccc3oc(N)nc3c2)c2c(N)ncnc21 + CC(C)NCC(C(=O)N1CCN(c2ncnc3c2C(C)CC3O)CC1)c1ccc(Cl)cc1
8.07

Supply pIC50 value. Item: C=CCn1c(=O)c2cnc(Nc3ccc(N4CCN(C)CC4)cc3)nc2n1-c1cccc(C(C)(C)O)n1 + CCN1CCN(Cc2ccc(Nc3ncc(F)c(-c4cc(F)c5nc(C)n(C(C)C)c5c4)n3)nc2)CC1
6.02

Supply pIC50 value. Item: CC1(C)CCC(CN2CCN(c3ccc(C(=O)NS(=O)(=O)c4ccc(NCC5CCOCC5)c([N+](=O)[O-])c4)c(Oc4cnc5[nH]ccc5c4)c3)CC2)=C(c2ccc(Cl)cc2)C1 + CC(C)NCC(C(=O)N1CCN(c2ncnc3c2C(C)CC3O)CC1)c1ccc(Cl)cc1
5.34

Supply pIC50 value. Item: CC(C)(C)c1cnc(CSc2cnc(NC(=O)C3CCNCC3)s2)o1 + CCN1CCN(Cc2ccc(Nc3ncc(F)c(-c4cc(F)c5nc(C)n(C(C)C)c5c4)n3)nc2)CC1
7.29

Supply pIC50 value. Item: Cc1nc(NC(=O)N2CCCC2C(N)=O)sc1-c1ccnc(C(C)(C)C(F)(F)F)c1 (stereo unspecified) + CC(C)NCC(C(=O)N1CCN(c2ncnc3c2C(C)CC3O)CC1)c1ccc(Cl)cc1
6.40

The measured values listed here are drawn from PubChem BioAssay AID2060329.
